Ref: patent US20220040297A1

Property: ratio of amounts bound (vs GLS3000); scope: individual binders
target: CD3ε homodimer protein (human, UniProt P07766 23-126, limits assumed); experiment: SPR, immobilized CD3ε homodimer;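 further: biacore T200 surface plasmon resonance at 25 °C, antibody variants flowed as analytes over amine-coupled CD3ε homodimer on a CM4 chip, variant binding amount divided by that of GLS3000 antibody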
Sequence (P07766 23-126 limits assumed): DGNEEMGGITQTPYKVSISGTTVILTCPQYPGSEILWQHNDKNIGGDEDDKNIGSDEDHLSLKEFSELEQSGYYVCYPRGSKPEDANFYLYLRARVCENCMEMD
READOUT KIND: ratio of amounts bound (vs GLS3000)

BINDER	READOUT KIND	OBS VALUE
GLS3000 K50P (antibody, name in Kabat numbering, V domains shown, one-arm format as m2) VH: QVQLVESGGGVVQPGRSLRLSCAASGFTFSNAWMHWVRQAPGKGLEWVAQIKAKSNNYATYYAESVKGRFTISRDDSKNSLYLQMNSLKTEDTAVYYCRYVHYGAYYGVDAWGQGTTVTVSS VL: DIVMTQSPLSLPVTPGEPASISCRSSQSLVHSNRNTYLHWYQQKPGQAPRLLIYPVSNRFSGVPDRFSGSGSGTDFTLKISRVEAEDVGVYYCGQGTQVPYTFGQGTKLEIK	ratio of amounts bound (vs GLS3000)	0.3
GLS3000 R54S (antibody, name in Kabat numbering, V domains shown, one-arm format as m2) VH: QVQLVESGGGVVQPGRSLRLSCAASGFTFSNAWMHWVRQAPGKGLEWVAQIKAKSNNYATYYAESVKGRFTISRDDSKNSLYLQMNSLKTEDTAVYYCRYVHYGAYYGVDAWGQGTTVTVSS VL: DIVMTQSPLSLPVTPGEPASISCRSSQSLVHSNRNTYLHWYQQKPGQAPRLLIYKVSNSFSGVPDRFSGSGSGTDFTLKISRVEAEDVGVYYCGQGTQVPYTFGQGTKLEIK	ratio of amounts bound (vs GLS3000)	0.79
GLS3000 L33P (antibody, name in Kabat numbering, V domains shown, one-arm format as m2) VH: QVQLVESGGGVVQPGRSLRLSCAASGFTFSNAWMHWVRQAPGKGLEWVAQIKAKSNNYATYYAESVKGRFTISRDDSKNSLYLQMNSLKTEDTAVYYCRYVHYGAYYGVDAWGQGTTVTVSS VL: DIVMTQSPLSLPVTPGEPASISCRSSQSLVHSNRNTYPHWYQQKPGQAPRLLIYKVSNRFSGVPDRFSGSGSGTDFTLKISRVEAEDVGVYYCGQGTQVPYTFGQGTKLEIK	ratio of amounts bound (vs GLS3000)	0.3
GLS3000 F55K (antibody, name in Kabat numbering, V domains shown, one-arm format as m2) VH: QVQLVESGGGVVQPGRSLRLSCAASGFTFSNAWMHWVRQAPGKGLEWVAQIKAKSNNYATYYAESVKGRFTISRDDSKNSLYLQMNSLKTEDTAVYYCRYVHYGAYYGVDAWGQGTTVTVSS VL: DIVMTQSPLSLPVTPGEPASISCRSSQSLVHSNRNTYLHWYQQKPGQAPRLLIYKVSNRKSGVPDRFSGSGSGTDFTLKISRVEAEDVGVYYCGQGTQVPYTFGQGTKLEIK	ratio of amounts bound (vs GLS3000)	1.33
GLS3000 F55V (antibody, name in Kabat numbering, V domains shown, one-arm format as m2) VH: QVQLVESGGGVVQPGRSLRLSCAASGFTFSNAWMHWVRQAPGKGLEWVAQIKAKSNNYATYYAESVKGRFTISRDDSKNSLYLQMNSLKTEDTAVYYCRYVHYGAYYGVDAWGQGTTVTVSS VL: DIVMTQSPLSLPVTPGEPASISCRSSQSLVHSNRNTYLHWYQQKPGQAPRLLIYKVSNRVSGVPDRFSGSGSGTDFTLKISRVEAEDVGVYYCGQGTQVPYTFGQGTKLEIK	ratio of amounts bound (vs GLS3000)	0.71
